Reference source for all entries: the supplement of paper PMC10724198

# Tested on: Saccharomyces cerevisiae;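 note: PSI is a weighted mean of sequencing reads over stability bins, variants kept only with over 10 reads, mCherry proximal and sfGFP distal, peptide attached via GGGS linker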
# Procedure Details: protein stability index of tFT-peptide fusion (C-terminal peptide) (PSI (0-1 scale)); higher = more stable (slower turnover)
# Particulars: genetic background: wild type; temperature: 30 C
Recorded protein stability index for the following sequences
# respond with the number and nothing more

Consider the reported protein stability index for these sequences:
Residues	Value
LLWALGLVLVEG	0.377
TYRLLAEPTPPA	0.702
GCLHVVGGVCLG	0.69
VGLPPVAGLVTG	0.751
VRRQADRAGRIS	0.696
VSTENDGCGTPR	0.712
WSFMYLYFFDSW	0.685
CSVDSRLSMLVL	0.605

Given VSSSQPGEYNIG , state its recorded protein stability index. 0.709

For the sequence shown here, CRRSSRIKHILL , give the reported protein stability index. 0.603

Report protein stability index for LNCRCMLSRHCW please. 0.666

What value of measured protein stability index is listed for RVSACVDGHVFL ? 0.643

What does the record list as protein stability index for FACLGPLRRRLG ? 0.682
